# measurement-context: buffer; pH 7.4; 200.0 µM
Record form. Attribute: solubility kinetic. Fill in for each entry.

Lookup: Please report solubility kinetic for the following compound: Cc1cc(=O)[nH]c(-c2cccs2)n1
Found: > 28.8 µg/mL

Lookup: Specify measured solubility kinetic for CCOC(=O)C1CCCN(C(=O)c2cc3cc(F)ccc3[nH]2)C1 (stereo unspecified) .
Found: 23.9 µg/mL

Lookup: Fill in solubility kinetic for record COc1cc(OC)nc(Oc2ccccc2/C=N/O)n1
Found: > 41.3 µg/mL

Lookup: // fetch solubility kinetic given entry CCCCCCn1c(=O)[nH]c2c(c1=O)CCC2
Found: > 35.4 µg/mL

Lookup: Tell us which solubility kinetic value is on record for O=C(Nc1cccc(Cl)c1N1CCOCC1)c1cccnc1
Found: > 47.7 µg/mL

Lookup: # return recorded solubility kinetic for entry CCOC(=O)C1(CC2CC2)CCN(C(=O)c2ocnc2C)CC1
Found: > 48.1 µg/mL

---

# measurement-context: buffer; pH 7.4; 200.0 µM
measurement-label: solubility kinetic (µg/mL)
Numbers only; they are read as µg/mL.

Lookup: Give solubility kinetic for the following molecule: COc1ccc(CCNC(=O)CCCc2ccccc2)cc1
Found: 35.6

Lookup: Determine from records and report solubility kinetic for CC(=O)NCc1cc(-c2ccc(Cl)cc2)no1
Found: 37.2

Lookup: Quick one: give measured solubility kinetic for CCC(C)c1ccccc1NC(=O)c1[nH]c(C)c(C(C)=O)c1C (stereo unspecified)
Found: 2

Lookup: Recall and state the measured solubility kinetic for Cc1cc(C)c2cc(C(=O)N3CCc4ccccc4C3)[nH]c2c1 .
Found: 0.5

Lookup: Tell me its solubility kinetic given Cc1ccc(NC(=O)C2CCCO2)c(Br)c1 (stereo unspecified) as the entry.
Found: 37.5

Lookup: Check the records and state solubility kinetic for O=C(CN1CCCC1)Nc1ccccc1C(=O)c1ccccc1
Found: 44

Lookup: Tell me its solubility kinetic given CCCCCCC1CCC(C(=O)N2CCOCC2)CC1 (stereo unspecified) as the entry.
Found: 10

Lookup: Output measured solubility kinetic for this item: CC(=O)N/C(=C\c1ccccc1)C(=O)OCc1ccc(F)cc1
Found: 43.4

Lookup: State its solubility kinetic: CSc1ncc(CN2CCCC(C(=O)c3cccc(Cl)c3)C2)cn1 (stereo unspecified)
Found: 29

Lookup: Output solubility kinetic of O=C(CCc1ccncc1)N1CCCC(Nc2ccc(F)c(F)c2)C1 (stereo unspecified)
Found: 43.9

Lookup: Please give the documented solubility kinetic of CC(=O)c1cccc(NC(=O)CCC(=O)c2ccc(F)cc2)c1
Found: 3.8

Lookup: Consider the molecule Cc1ccc(C)c(NC(=O)COC(=O)Cc2ccsc2)c1 and give its recorded solubility kinetic.
Found: 42.5

Lookup: Give solubility kinetic for the following molecule: CN(C)/C=C1\C(=O)Oc2ccccc2C1=O
Found: 32.4

Lookup: Complete the entry with solubility kinetic for COCCn1c(C)c(C)c2c(NCCc3ccccc3)ncnc21
Found: 34.8

Lookup: Give reported solubility kinetic value for Cl.NCCSC1CC(=O)N(c2ccc(Cl)c(Cl)c2)C1=O (stereo unspecified)
Found: 32.8

Lookup: Look up and state reported solubility kinetic for COc1cc2ccccc2cc1C(=O)N1CCc2ccccc21
Found: 1.9

Lookup: Give solubility kinetic for O=Cc1cccnc1SCc1ccccc1
Found: 15.5

Lookup: Return reported solubility kinetic. Input molecule: Cc1cc(C(=O)Nc2c(F)cc(F)cc2Br)cs1
Found: 25.9

Lookup: Hello, please tell me recorded solubility kinetic for this one: Cc1ccc(NCc2nc3ccccc3n2C)c(C)c1
Found: 32.1

Values were extracted from PubChem BioAssay AID1996.
